Values compiled from PubChem BioAssay AID1851.

- experimentalTarget: Cytochrome P450 1A2 (Homo sapiens)
- measurementNotes: Cytochrome panel assay with activity outcomes
- assayContext: recombinant CYP, pro-luciferin dealkylation, luminescence, p450-cyp1a2; series mostly up to 57.1 µM
Hit rate of the full screen: of about 16,000 compounds, about 5,700 (36%) were called active. Not shown: some 24% with an inconclusive outcome. Calls follow the shape of the dose curve; as a rule, active = well fitted curve in the direction sought with a large enough effect; inconclusive = small, poorly fitted or top-dose-only effect, or effect the other way; inactive = no such curve, though single readings can be large or run the other way. The list shows a part of the results.
The reply should name one outcome from active, inactive

Worked examples follow.
INSERT INTO results (molecule, group) VALUES
  ('O=C(CCNS(=O)(=O)c1ccc2c(c1)CCC(=O)N2)NCc1ccc2c(c1)OCO2', 'inactive'),
  ('O=C1C(O)=C(O)C(=O)C(O)=C1O', 'inactive'),
  ('COc1ccc(-n2c(CNc3ccc(C)cc3)nnc2SCC(=O)Nc2nc(-c3ccccc3)cs2)cc1', 'inactive');

Recorded call for COc1cc(C(=O)NCCC(=O)NCc2ccc3c(c2)OCO3)cc(OC)c1OC ? active

Recorded call for C=CCn1c(=O)c(C(=O)NCCN(CC)CC)c(O)c2ccccc21 ? active

Recorded call for COc1ccc(Oc2ncc3nc(-c4cccs4)c(=O)n(-c4ccccc4)c3n2)cc1 ? active

Recorded call for O=C(NCc1cccnc1)c1sc2cc(Cl)ccc2c1Cl ? active

Recorded call for CCNC(=O)CSc1nnc(C2CC2)n1-c1ccccc1 ? inactive

Recorded call for CCOc1ccc(NCc2nnc(SCc3ccccc3Cl)n2-c2ccccc2)cc1 ? active

Recorded call for CCN1CCCC1CNC(=O)CCNC(=O)c1cc(OC)c(OC)c(OC)c1 (stereo unspecified) ? inactive

Recorded call for O=c1[nH]c(=O)n([C@@H]2C[C@H](O)[C@H](CO)O2)cc1I ? inactive

###

- experimentalTarget: Cytochrome P450 1A2 (Homo sapiens)
- measurementNotes: Cytochrome panel assay with activity outcomes; as to activity, negative = inhibition: % is scaled to controls: 0 for no effect and ±100 for the full control effect
- assayContext: recombinant CYP, pro-luciferin dealkylation, luminescence, p450-cyp1a2; series mostly up to 57.1 µM
- Description: The P450 gene superfamily is involved in the metabolism and clearance of xenobiotics. This assay used various human CYP P450 isozymes to measure the dealkylation of various pro-luciferin substrates to luciferin. The luciferin is then measured by luminescence after the addition of a luciferase detection reagent. […] Inhibitors and some substrates limit the production of luciferin, and decrease measured luminescence. […] 8, Detection, 1 sec, ViewLux luminescent read […]
The campaign covered roughly 16,000 compounds. About 5,700 (36%) were called active. Inconclusive results (about 24%) are left out. The list shows a part of the results.
endpoint: activity, negative = inhibition

Example entries and their recorded answers appear below.
INSERT INTO assay_data (compound, result) VALUES
  ('Cc1cc(Cc2cc(Cc3cc(C)cc(C(C)(C)C)c3O)c(C)cc2C)c(O)c(C(C)(C)C)c1', '-17.1% [at 2.29 µM] (inactive)'),
  ('C[C@@H](c1ccccc1)N1C(=O)[C@H]2[C@H]3[C@H](O)[C@H](O)C/C(=N/OC[C@@H](O)COCc4ccco4)[C@@H]3CC[C@@H]2C1=O', '-14.6% [at 11.4 µM] (inactive)'),
  ('COCOc1ccc(Br)cc1C(=O)[C@H]1O[C@H]1c1cccc(OC)c1', '-9.07% [at 11.4 µM] (inactive)'),
  ('CO[C@@H]1COC(=O)[C@H]2CCCN2C(=O)[C@@H](C)COC(=O)C/C=C\[C@H]1C', '1.25% [at 11.4 µM] (inactive)'),
  ('CCc1cc2c(nc1CC)CCN(CC/C(C)=N/OC[C@H]1O[C@H](c3ccccc3)C=C[C@@H]1Oc1ccc(OC)cc1)C2', '0.11% [at 11.4 µM] (inactive)');

Fill in activity, negative = inhibition for record Cc1ncc(COP(=O)(O)O)c(C)c1O -20.3% [at 11.4 µM] (inactive)

Fill in activity, negative = inhibition for record Nc1ncnc2c1ncn2C[C@@H](O)C(=O)O -12.5% [at 11.4 µM] (inactive)

Fill in activity, negative = inhibition for record N=C(N)SCc1cccc(-c2nc3ccccc3c(=O)o2)c1 -10.3% [at 2.29 µM] (inactive)

Fill in activity, negative = inhibition for record CCOc1ccccc1-n1nnnc1SCC(=O)Nc1cc(C)on1 -7% [at 11.4 µM] (inactive)

Fill in activity, negative = inhibition for record N#[N+]c1ccc(Nc2ccccc2)cc1 -12.6% [at 11.4 µM] (inactive)

Fill in activity, negative = inhibition for record CC(=O)OC[C@@H]1O[C@H](C/C=N\O[C@@H]2O[C@H](COC(C)=O)[C@@H](OC(C)=O)[C@H](OC(C)=O)[C@H]2OC(C)=O)C=C[C@@H]1OC(C)=O -3.65% [at 11.4 µM] (inactive)

Fill in activity, negative = inhibition for record COC(=O)[C@@H]1CC[C@H](C)[C@@H](c2ccc(C)cc2)N1C(=O)c1ccc(/C=N\O[C@@H](C)CN2CCCc3nc(C)c(C)cc32)cc1 -8.09% [at 11.4 µM] (inactive)

Fill in activity, negative = inhibition for record CC(C)=CCC/C(C)=C/CO/N=C1/C[C@@H](O)[C@@H](O)[C@@H]2[C@@H]3C(=O)N(Cc4ccc5c(c4)OCO5)C(=O)[C@H]3CC[C@H]12 -9.49% [at 11.4 µM] (inactive)

Fill in activity, negative = inhibition for record CC(=O)N[C@@H]1CONC1=O -16.9% [at 11.4 µM] (inactive)

Fill in activity, negative = inhibition for record NS(=O)(=O)c1ccc(NCc2cnc3ccccc3n2)cc1 -18.2% [at 2.29 µM] (inactive)

Fill in activity, negative = inhibition for record CN1CCc2[nH]nc(-c3n[nH]c4c3CN(C)CC4)c2C1 -15.6% [at 11.4 µM] (inactive)

Fill in activity, negative = inhibition for record CO/N=C\C[C@@H]1C=C[C@H](OC(C)=O)[C@H](COC(C)=O)O1 -9.17% [at 11.4 µM] (inactive)

Fill in activity, negative = inhibition for record NS(=O)(=O)c1ccc(NCc2nc3ccccc3[nH]2)cc1 -18.8% [at 2.29 µM] (inactive)

Fill in activity, negative = inhibition for record Cc1ccc(S(=O)(=O)N[C@@H]2COC(=O)C/C=C\[C@H](C)COC(=O)N[C@@H](C)C(=O)C/C=C\[C@H]2C)cc1 -0.145% [at 11.4 µM] (inactive)

Fill in activity, negative = inhibition for record COc1ccc(O[C@H]2C=C[C@@H](c3ccccc3)O[C@H]2COC(=O)CC/C(C)=N\O[C@@H](C)CN2CCCc3nc(C)c(C)cc32)cc1 2.58% [at 11.4 µM] (inactive)

Fill in activity, negative = inhibition for record OC1CC2CC[C@H](C1)N2CCCN1c2ccccc2Sc2ccc(Cl)cc21 (stereo partly drawn) -12.5% [at 11.4 µM] (inactive)

###

- experimentalTarget: Cytochrome P450 1A2 (Homo sapiens) (UniProt P05177)
- Sequence (P05177 whole entry, looked up): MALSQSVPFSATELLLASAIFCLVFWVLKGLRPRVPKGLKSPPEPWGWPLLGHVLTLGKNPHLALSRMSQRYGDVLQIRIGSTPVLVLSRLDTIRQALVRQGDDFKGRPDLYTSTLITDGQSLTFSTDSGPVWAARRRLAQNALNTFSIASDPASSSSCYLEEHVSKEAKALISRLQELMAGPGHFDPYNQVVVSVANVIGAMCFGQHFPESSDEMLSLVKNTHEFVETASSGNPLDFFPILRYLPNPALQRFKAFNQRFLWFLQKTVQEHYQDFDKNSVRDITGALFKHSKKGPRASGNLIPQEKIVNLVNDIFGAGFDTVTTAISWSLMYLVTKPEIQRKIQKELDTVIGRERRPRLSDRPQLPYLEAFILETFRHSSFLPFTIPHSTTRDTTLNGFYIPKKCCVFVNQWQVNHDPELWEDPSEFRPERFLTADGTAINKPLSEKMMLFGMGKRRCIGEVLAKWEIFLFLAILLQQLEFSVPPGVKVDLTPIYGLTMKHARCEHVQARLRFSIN
- measurementNotes: Cytochrome panel assay with activity outcomes
- assayContext: recombinant CYP, pro-luciferin dealkylation, luminescence, p450-cyp1a2; series mostly up to 57.1 µM
Among all 16,000 compounds or so, about 5,700 (36%) were called active. About 24% were inconclusive and are not listed. The call rests on the fitted dose curve; in most records, active means well fitted curve in the direction sought with a large enough effect; inconclusive means small, poorly fitted or top-dose-only effect, or effect the other way; inactive means no such curve, though single readings can be large or run the other way. The list shows a part of the results.
The reply should name one outcome from YES for active, NO for inactive

Worked examples follow.
INSERT INTO assay_data (molecule, experimentaltarget, group) VALUES
  ('Cc1cccc(CNc2ncnc3ccc(-c4ccc5c(c4)OCO5)cc23)c1', 'Cytochrome P450 1A2 (Homo sapiens) (UniProt P05177)', 'YES'),
  ('CCc1nn(C)c(-c2n[nH]c(=S)n2N)c1Cl', 'Cytochrome P450 1A2 (Homo sapiens) (UniProt P05177)', 'NO'),
  ('CCOc1ccccc1NC(=O)CN1CCC(NC(=O)c2ccccc2)CC1', 'Cytochrome P450 1A2 (Homo sapiens) (UniProt P05177)', 'NO'),
  ('COc1ccccc1CN1CCC2(CC1)CCN(S(C)(=O)=O)CC2', 'Cytochrome P450 1A2 (Homo sapiens) (UniProt P05177)', 'NO'),
  ('COc1ccc(NC(=O)N2CC[C@@]3(CCCN(C(=O)c4cnccn4)C3)C2)cc1', 'Cytochrome P450 1A2 (Homo sapiens) (UniProt P05177)', 'NO');

Recorded call for COc1c(O)cc2c(c1O)[C@@H]1O[C@@H](CO)[C@@H](O)[C@@H](O)[C@@H]1OC2=O ? NO

Recorded call for CC[N+](CC)(CC(=O)Nc1c(C)cccc1C)Cc1ccccc1 ? NO

Recorded call for Nc1c2c(nc3ccccc13)CCC[C@H]2O ? YES

Recorded call for CC[C@H]1C2=C3C(CC[C@H]4C(OCc5ccc(F)cc5C(F)(F)F)OC[C@](C)([C@@H]34)N(C(=O)OC(C)(C)C)C2)C(COC(C)=O)C1COC(C)=O (stereo not given in full) ? NO

Recorded call for c1ccc(Nc2ncnc3ccc(-c4ccc5c(c4)OCO5)cc23)cc1 ? YES
